target: HLA-A*02:01 (Homo sapiens, UniProt P04439, D140Y/D185E/D98H/E176V/E277Q/G131W/G231S/I119V/I121R/I166T/I218V/L300P/L318F/N151K/N90K/P208A/P217A/Q86G/Q94H/R138H/R169H/T345S); assay: MHC binding assay (UV-ligand exchange, beta2m ELISA); details: binding to HLA-A*02:01, β2m ELISA
measurement.name: Peptide exchange (MHC class I binding score, peptide exchange yield)

Solved entries (count: 5):
51 (LDSEALLTL; listed as Homo sapiens) [compound 51] :: ++ (≧20% = ++)
171 (LLLLDVPTA; listed as Homo sapiens) [compound 171] :: ++ (≧20% = ++)
160 (TLQEWLTEV; listed as Homo sapiens) [compound 160] :: +++ (≧50 = +++)
27 (GLLGKVTSV; listed as Homo sapiens) [compound 27] :: +++ (≧50 = +++)
39 (YLEDGFAYV; listed as Homo sapiens) [compound 39] :: +++ (≧50 = +++)

Input 267 (YLLDMPLWYL; listed as Homo sapiens) [compound 267] . Output Peptide exchange (MHC class I binding score, peptide exchange yield): +++ (≧50 = +++)

Looking up 223 (ALHPVQFYL; listed as Homo sapiens) [compound 223] , I found its Peptide exchange (MHC class I binding score, peptide exchange yield) recorded as +++ (≧50 = +++)

Entry 282 (SLYALHVKA; listed as Homo sapiens) [compound 282] , Peptide exchange (MHC class I binding score, peptide exchange yield) reported as ++ (≧20% = ++)

Entry 115 (ILHGEVNKV; listed as Homo sapiens) [compound 115] ; Peptide exchange (MHC class I binding score, peptide exchange yield) = ++ (≧20% = ++)
